Source: patent US6943194B1

// values below are reported melting point

COc1cc(C(=O)c2cc(Cl)cc(Cl)c2)cc(OC)c1OC: 131 to 132 °C

Determine its reported melting point: COc1cc(OC)cc(C(=O)c2cc(OC)c(OC)c(OC)c2)c1
121 to 122 °C

Determine its reported melting point: COc1cc(C(=O)c2cc(F)cc(F)c2)cc(OC)c1OC
121 to 123 °C

Determine its reported melting point: COc1ccc(C(=O)c2cc(OC)c(OC)c(OC)c2)cc1OC(C)=O [Compound 3e, Phenstatin Acetate]
164 to 165 °C

Determine its reported melting point: COc1cc(C(=O)c2ccc3c(c2)OCO3)cc(OC)c1OC
124 to 125 °C

Determine its reported melting point: COc1cc(C(=O)c2cc(C)cc(C)c2)cc(OC)c1OC
104 to 105 °C
